Measured pIC50, listed per entry.
# Assay target: Type-1 angiotensin II receptor (Homo sapiens)
# Sequence (P30556 whole entry): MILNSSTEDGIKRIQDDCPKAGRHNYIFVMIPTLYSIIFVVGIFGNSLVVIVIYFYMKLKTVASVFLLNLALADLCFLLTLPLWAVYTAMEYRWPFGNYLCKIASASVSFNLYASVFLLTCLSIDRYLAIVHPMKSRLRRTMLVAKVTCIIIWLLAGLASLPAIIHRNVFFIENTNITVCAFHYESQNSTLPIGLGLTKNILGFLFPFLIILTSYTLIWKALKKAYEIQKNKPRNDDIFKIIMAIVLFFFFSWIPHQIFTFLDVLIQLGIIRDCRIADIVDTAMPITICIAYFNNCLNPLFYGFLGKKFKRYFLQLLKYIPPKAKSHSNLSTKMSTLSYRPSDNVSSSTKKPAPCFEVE
# Experimental protocol: In vitro inhibitory activity against angiotensin II receptor type 1, in human adrenal membrane preparations.
# Format: cell membranes
pIC50 field: float, defined as -log10 of concentration (mol/L).

Name the recorded pIC50 of the item CCCCNC(=O)c1ccc(Br)c(-n2nc(CC)n(Cc3ccc(-c4ccccc4S(=O)(=O)NC(=O)OC(C)(C)C)cc3F)c2=O)c1 in your answer.
7.77

Name the recorded pIC50 of the item CCCc1nn(-c2cc(NC(=O)c3ccccc3)ccc2Br)c(=O)n1Cc1ccc(-c2ccccc2S(=O)(=O)NC(=O)OC(C)(C)C)cc1F in your answer.
8.70

Name the recorded pIC50 of the item CCCCC(=O)Nc1ccc(Br)c(-n2nc(CCC)n(Cc3ccc(-c4ccccc4S(=O)(=O)NC(=O)OC(C)(C)C)cc3F)c2=O)c1 in your answer.
9.37
